System: SR
Assay: NCI tumour cell line growth inhibition, 48 h
Activity calls are given as the source filed them. Cut-off read from the data, not from the text of the source: active = GI50 up to about 1.1 µM and inactive = higher.
Permitted responses: True = active, False = inactive

{"columns": ["compound", "group"],
 "data": [
  ["COC(C)(C)OCCN1CCN(CCN2C3=C(C=C(C(C)=O)C3)Sc3ccccc32)CC1", "False"]
]}

Request: Could you please tell me the result logged for CC(C)(C)c1ccc(-c2nnc(SCc3ccc(Cl)cc3)n2-c2cccc(C(F)(F)F)c2)cc1 in this assay?
Response: False

Request: Param item: COc1ccc(C(=O)C(C(=O)CCC(=O)Nc2cccc(Cl)c2)c2ccc(OC)cc2)cc1 (centres undefined)
Response: False

====

Test system: HL-60
Test: NCI tumour cell line growth inhibition, 48 h
Activity calls are given as the source filed them. Cut-off read from the data, not from the text of the source: active = GI50 up to about 1.1 µM and inactive = higher.
Permitted responses: active, inactive

{"columns": ["molecule", "group"],
 "data": [
  ["C=C1CC(Cn2ccc(=O)[nH]c2=O)(c2ccc(-c3ccccc3)cc2)OC1=O (stereo not drawn)", "active"],
  ["O=C1OC(Cl)C(N=P(c2ccccc2)(c2ccccc2)c2ccccc2)=C1Cl (stereo not drawn)", "inactive"],
  ["NC1CSc2ccccc2NC1=O (stereo not drawn)", "inactive"],
  ["NC(=S)N/N=C(\\Cc1nc2ccc(Cl)cc2nc1O)C(=O)Nc1ccc(Cl)cc1", "inactive"]
]}

Request: Could you please tell me the result logged for COC(=O)CC1CC2(C(=O)OC)c3[nH]c4ccccc4c3CCN2C1=O (stereo not drawn) in this assay?
Response: inactive

Request: Param item: O=[N+]([O-])c1ccc(O)c(/C=N/NC(=S)N2CCCCC2)c1
Response: active

Request: Param item: COc1c(O)c(OC)c2oc(-c3ccc(O)c(O)c3)c(OC)c(=O)c2c1O
Response: inactive

Request: Param item: O=C(Oc1cccnc1)c1cc2cc(CCl)ccc2oc1=O
Response: inactive

Request: Param item: Nc1nnc(O)c2c1c(I)cn2C1OC(CO)C(O)C1O (stereo not drawn)
Response: active

====

Test system: Malme-3M
Experiment: NCI tumour cell line growth inhibition, 48 h
Activity calls are given as the source filed them. Cut-off read from the data, not from the text of the source: active = GI50 up to about 1.1 µM and inactive = higher.
Permitted responses: true (active), false (inactive)

Solved cases (8 shown):
{"columns": ["compound", "group"],
 "data": [
  ["N=C(CCl)NC1CN2CCC1CC2 (configuration not stated)", "false"],
  ["CC(=O)Nc1ccc(C2=N/C(=C\\c3ccc(Cl)cc3)C(=O)O2)cc1", "false"],
  ["CCOC(=O)C(=O)Nc1c(CC)cccc1C(C)CC (configuration not stated)", "false"],
  ["O=[N+]([O-])c1cc2c(cc1/C=N/n1c(CO)nc3ccccc31)OCO2", "false"],
  ["Nc1nc2c3nc(Nc4ccccc4)sc3nc(=O)n2c2sc(Nc3ccccc3)nc12", "false"],
  ["N#CCc1c(-c2ccccc2)n(S(=O)(=O)c2ccccc2)c2ccccc12", "false"],
  ["NCC(O)CNC(=O)c1ccc(-c2ccc(-c3ccc(C(=O)NCC(O)CN)cc3)o2)cc1 (configuration not stated)", "false"],
  ["COc1cccc2c1C(=O)c1c(O)c3c(c(O)c1C2=O)C[C@@](O)(C(=O)CO)C[C@@H]3OC1CC(N(C)C)C(O)C(C)O1 (some centres not stated)", "true"]
]}

Request: Could you please tell me the result logged for C[C@H]1[C@@H](c2ccccc2)O[B-](c2ccccc2)(c2ccccc2)[N+]1(C)C in this assay?
Response: false

Request: Param item: COc1ccc(N[C@H](C[S+]([O-])c2ccc(C)cc2)C(F)(F)C(F)(F)F)cc1 (some centres not stated)
Response: false

Request: Param item: O=C(Nc1ccccc1F)c1cc2ccc(O)cc2o/c1=N\c1cccc(F)c1
Response: false

Request: Param item: CCCCCCCC(=O)O[C@H]1[C@H]2[C@@H](CC1(C)C)C(=O)[C@]13O[C@H]1C(=O)[C@]1(CO1)[C@]23C
Response: false

====

System: SNB-75
Test: NCI tumour cell line growth inhibition, 48 h
Activity calls are given as the source filed them. Cut-off read from the data, not from the text of the source: active = GI50 up to about 1.1 µM and inactive = higher.
measured-quantity: GI50

{"columns": ["compound", "measured-quantity", "data-value"],
 "data": [
  ["CCCCCCCC(=O)O[C@H]1[C@H]2[C@@H](CC1(C)C)C(=O)[C@]13O[C@H]1C(=O)[C@]1(CO1)[C@]23C", "GI50", "23.4 µM (inactive)"],
  ["O=C(O)C[C@H]1CCCCC12CCOC2=O (stereo partly specified)", "GI50", "> 100 µM (inactive)"],
  ["NNC(=O)/C(=C/c1cccc([N+](=O)[O-])c1)NC(=O)c1ccccc1", "GI50", "> 100 µM (inactive)"],
  ["Clc1cccc(C2SCc3nc4ccccc4n32)c1Cl (stereo unspecified)", "GI50", "4.51 µM (inactive)"],
  ["CC(=O)O[C@H]1C(=O)[C@@]2(C)[C@H]([C@H](OC(=O)c3ccccc3)[C@]3(O)C[C@H](OC(=O)[C@H](O)[C@@H](NC(=O)c4ccc(N(C)C)cc4)c4ccccc4)C(C)=C1C3(C)C)[C@]1(OC(C)=O)CO[C@@H]1C[C@@H]2O", "GI50", "< 0.005 µM (active)"]
]}

Request: Quick one: GI50 of O=Cc1ccc(OC[C@H]2COC(=O)N2)cc1 ?
Response: > 100 µM (inactive)

Request: Param item: O=C(O)C1OC1(c1cccc(Cl)c1)c1ccccc1Cl (stereo unspecified)
Response: 19.9 µM (inactive)

Request: Param item: N/C(=N\O)N/N=C/c1cccc(F)c1
Response: 52.6 µM (inactive)

Request: Param item: CCOC(=O)/C(C#N)=C/c1ccc(CO)o1
Response: > 100 µM (inactive)

Request: Param item: CCO[C@@H]1OC(=O)[C@](C)(C(C)=O)[C@@H]1C
Response: 0.21 µM (active)

Request: Param item: CC1=C2C(=O)OCC23C=COC3(C)O1 (stereo unspecified)
Response: 24.8 µM (inactive)

====

Let's look at some compounds and their measured GI50.
Tested on: MOLT-4
Assay: NCI tumour cell line growth inhibition, 48 h
Active and inactive are the calls of the source. Rule as the data show it: active = GI50 up to about 1.1 µM and inactive = higher. Where a SMILES comes first, the peptide text is derived from it. [ ]: non-standard residue; d: D form. The star is where a group is joined. Phe(4-NO2) = N[CH](Cc1ccc([N+](=O)[O-])cc1)C(=O)O; Boc = CC(C)(C)OC(=O)*; OtBu = CC(C)(C)O*

{"columns": ["compound", "tgt", "GI50"],
 "data": [
  ["CC(=O)NC(CCC(=O)OC(C)(C)C)C(=O)NC(CCC(=O)OC(C)(C)C)C(=O)NC(Cc1ccc([N+](=O)[O-])cc1)C(=O)NC(CCCCNC(=O)OC(C)(C)C)C(=O)NC(CCCCNC(=O)OC(C)(C)C)C(=O)NCC(=O)O (stereo not given) (Ac-E(OtBu)E(OtBu)[Phe(4-NO2)]K(Boc)K(Boc)G-OH; configuration not given here)", "MOLT-4", "> 100 µM (inactive)"],
  ["CC(=O)Nc1ccc(C2=N/C(=C\\c3ccc(Cl)cc3)C(=O)O2)cc1", "MOLT-4", "20.7 µM (inactive)"],
  ["CS(=O)(=O)OC1CCC2(C#N)CCC1C2=O (stereo not given)", "MOLT-4", "> 100 µM (inactive)"]
]}

Request: Quick one: GI50 of CC(=O)N(CCc1ccccc1)C(C)(C#N)c1ccccc1 (stereo not given) ?
Response: > 100 µM (inactive)

====

System: SF-295
Assay: NCI tumour cell line growth inhibition, 48 h
Calls of active or inactive are those of the source. Cut-off read from the data, not from the text of the source: active = GI50 up to about 1.1 µM and inactive = higher.
measured-quantity: GI50

{"columns": ["molecule", "GI50"],
 "data": [
  ["COc1ccc2c(c1OC)C(C=C(c1ccccc1)c1ccccc1)CN(C)C2 (stereo not given)", "16.2 µM (inactive)"]
]}

Request: Identify the measured GI50 of COc1ccccc1NC(=O)C(=O)C(C#N)CC(C)(C)C=O (stereo not given) for SF-295.
Response: > 100 µM (inactive)

Request: Param item: COc1c(-c2nc3ccc(N4CCN(C)CC4)cc3[nH]2)cc(OC)c2[nH]c(COC(C)=O)nc12
Response: 71.8 µM (inactive)

Request: Param item: C1CSCCCSCCSCCCSC1
Response: > 100 µM (inactive)

Request: Param item: Clc1ccc(-c2nnc3sc4nc5ccccc5c-4nn23)c(Cl)c1
Response: 36.2 µM (inactive)

Request: Param item: CCCCCCCCCCCCCCCCCCN(C)CC(COP(=O)([O-])OCC[N+](C)(C)C)OC (stereo not given)
Response: 7.83 µM (inactive)

Request: Param item: CCc1cccc(C)c1NC(=O)C(=O)CC(=O)c1ccc(Cl)s1
Response: > 100 µM (inactive)

Request: Param item: CN(C)c1ccc(C2C(Cl)C(=O)N2NC(=O)c2c(Cl)c(Cl)c(Cl)c(Cl)c2-c2nc3ccccc3[nH]2)cc1 (stereo not given)
Response: 42.6 µM (inactive)

Request: Param item: CCOC(=O)c1nc2ccc(C(F)(F)F)cc2nc1Nc1cc(OC)c(OC)c(OC)c1
Response: > 100 µM (inactive)

Request: Param item: C=C1CC(Cn2ccc(=O)[nH]c2=O)(c2ccc(-c3ccccc3)cc2)OC1=O (stereo not given)
Response: 12.5 µM (inactive)
